Source: ChEMBL document CHEMBL2176923

test details: Oral bioavailability in overnight fasted cynomolgus monkey at 10 mg/kg administered as solution
Type: ADME, organism-based, Macaca fascicularis
applied conditions: in vivo
measured parameter: bioavailability (%)

[
  {
    "sample smiles": "N[C@@H]1c2cccnc2[C@H](OC(=O)N2CCC(n3c(=O)[nH]c4ncccc43)CC2)CC[C@H]1c1cccc(F)c1F",
    "endpoint unit": "%",
    "experimental result": 67
  }
]

* * *

test target: Calcitonin gene-related peptide type 1 receptor (Homo sapiens, UniProt O60894+Q16602)
Sequence (Q16602 whole entry, one chain of several): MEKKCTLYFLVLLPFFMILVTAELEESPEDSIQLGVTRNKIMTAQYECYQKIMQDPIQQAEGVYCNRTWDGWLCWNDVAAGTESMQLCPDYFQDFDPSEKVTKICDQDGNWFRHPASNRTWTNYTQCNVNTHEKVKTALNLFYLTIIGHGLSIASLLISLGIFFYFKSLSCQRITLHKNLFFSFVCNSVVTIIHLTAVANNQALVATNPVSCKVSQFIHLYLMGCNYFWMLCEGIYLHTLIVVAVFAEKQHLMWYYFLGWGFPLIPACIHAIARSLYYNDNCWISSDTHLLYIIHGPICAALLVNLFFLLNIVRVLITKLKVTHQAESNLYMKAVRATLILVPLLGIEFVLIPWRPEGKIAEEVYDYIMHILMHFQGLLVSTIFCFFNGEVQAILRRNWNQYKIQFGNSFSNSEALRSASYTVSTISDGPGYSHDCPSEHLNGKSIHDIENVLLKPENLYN
test details: Antagonist activity at CGRP receptor in human SK-N-MC cells assessed as inhibition of CGRP-stimulated cAMP production preincubated for 15 mins prior to CGRP challenge measured after 30 mins by HTRF assay
pEC50: −log10 of the molar value.

[
  {
    "compound": "N[C@@H]1c2cccnc2[C@H](OC(=O)N2CCC(n3c(=O)[nH]c4ncccc43)CC2)CC[C@H]1c1cccc(F)c1F [RIMEGEPANT]",
    "pEC50": 9.85
  }
]
